Biological target: human HPK1 (MAP4K1) (Homo sapiens (Human), UniProt Q92918)
Sequence (Q92918 17-274): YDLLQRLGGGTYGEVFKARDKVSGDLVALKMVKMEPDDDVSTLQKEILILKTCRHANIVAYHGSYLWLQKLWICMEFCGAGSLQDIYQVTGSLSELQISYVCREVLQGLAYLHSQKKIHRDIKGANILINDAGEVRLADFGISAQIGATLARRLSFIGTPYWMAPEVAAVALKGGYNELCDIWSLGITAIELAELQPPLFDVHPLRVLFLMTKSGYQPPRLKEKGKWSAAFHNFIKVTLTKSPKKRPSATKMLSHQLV
Assay: HPK1 IC50 Assay (TR-FRET peptide phosphorylation)
Format: biochemical
Conditions: recombinant HPK1 kinase domain 0.15 nM, 10 μM ATP, 1 μM STK S1 peptide; geometric mean of multiple experiments
endpointLabel: IC50 (pM)

molecule=CNC(=O)c1cc(Nc2nc(-c3ccc4c(c3)N([C@H]3C[C@@H](N5CCCCC5)C3)C(=O)C43CCN(CC(F)F)CC3)cc3ncn(C(C)C)c23)c(F)cc1C experimentalresult=200
molecule=CCNC(=O)c1cc(Nc2nc(-c3ccc4c(c3)N([C@H]3C[C@@H](N5CCCCC5)C3)C(=O)C43CN(C(C)=O)C3)cc3ncn(C(C)C)c23)c(F)cc1C experimentalresult=300
molecule=CNC(=O)c1cc(Nc2nc(-c3ccc4c(c3)N([C@H]3C[C@@H](N5CCC(C)(C)C5)C3)C(=O)C43CCN(C(C)=O)CC3)cc3ncn(C(C)C)c23)ccc1C experimentalresult=100
molecule=CC[C@H](C)n1cnc2cc(-c3ccc4c(c3)N([C@H]3C[C@@H](N5CC[C@@H](F)C5)C3)C(=O)C4(C)C)nc(Nc3cc(C(=O)NC)c(C)cc3F)c21 experimentalresult=300
molecule=CNC(=O)c1cc(Nc2nc(-c3ccc4c(c3)N([C@H]3C[C@@H](N5CCCCC5)C3)C(=O)C43CCN(C(=O)C4(C)CC4)CC3)cc3ncn(C4CC4)c23)ccc1C experimentalresult=100
molecule=CCn1cnc2cc(-c3ccc4c(c3)N([C@H]3C[C@@H](N5CCCCC5)C3)C(=O)C4(C)C)nc(Nc3ccc(C)c(C(=O)NC)c3)c21 experimentalresult=90
molecule=CNC(=O)c1cc(Nc2nc(-c3ccc4c(c3)N([C@H]3C[C@@H](N5CC[C@@H](F)C5)C3)C(=O)C43CCN(C4COC4)CC3)cc3ncn(C(C)C)c23)c(F)cc1C experimentalresult=100
molecule=Cc1c(C(=O)NC2(C(F)F)CC2)cc(Nc2nc(-c3cnc4c(c3)N([C@H]3C[C@@H](N5C[C@H]6CC[C@@H]5C6)C3)C(=O)C4(C)C)cc3ncn(C(C)C)c23)c(F)c1F experimentalresult=100
molecule=CNC(=O)c1cc(Nc2nc(-c3ccc4c(c3)N([C@H]3C[C@@H](N5CCCCC5)C3)CC4(C)C)cc3ncn(C(C)C)c23)ccc1C experimentalresult=200
molecule=CC(C)n1cnc2cc(-c3ccc4c(c3)N([C@H]3C[C@@](C)(N5CCCCC5)C3)C(=O)C4(C)C)nc(Nc3cc(C(=O)NC4(C(F)F)CC4)c(Cl)c(F)c3F)c21 experimentalresult=100
molecule=CCNC(=O)c1cc(Nc2nc(-c3ccc4c(c3)N([C@H]3C[C@@](C)(N5CCCCC5)C3)C(=O)C4(C)C)cc3ncn(C(C)C)c23)c(F)c(F)c1C experimentalresult=40

Cited source for all entries: patent US11203591B2
